B1: HDV Ribozyme (parent)
chain: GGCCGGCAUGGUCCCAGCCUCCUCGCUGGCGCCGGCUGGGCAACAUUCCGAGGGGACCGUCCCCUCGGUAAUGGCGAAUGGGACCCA

Variants of: B1
Assay Notes: self-cleavage, relative activity (ratio to wild type); higher = more cleavage; co-transcriptional
Classification by self-cleavage | ranges: band 1 = under 0.1, band 2 = from 0.1 up to 0.4, band 3 = 0.4 and over

Below are worked cases with known answers.
{"Biopolymer Sequence": "GGCCGGCAUGGUCCCAGCUUCCUCGCUGGCGCCGGCUGGGCAACAUUCCGAGGGGACCGUCCCCUCGGUAAUGGCAAAUGGGACCCA", "Label": "band 2"}
{"Biopolymer Sequence": "GGCCGGCAUGUUCCCAGCCUCCUCGCUGGCGCCGGCUGGGCAACAUUCCGAUGGGACCGUCCCCUCGGUAAUGGCGAAUGGGACCCA", "Label": "band 3"}
{"Biopolymer Sequence": "GGCCGGCAUGGUACCAGCCUCCUCGCUGGCGCCGGCUGGGCAACAUUCCGAGGGGACCGUCCCAUCGGUAAUGGCGAAUGGGACCCA", "Label": "band 2"}
{"Biopolymer Sequence": "GGCCGGCAUGGUCCCAGCCUCCUCGCUGGCGCACGCUGGGCAACAUUCCGAGGGGACCGUCCCCUCGGUAAUGGCGAAUGGGACCCA", "Label": "band 2"}
{"Biopolymer Sequence": "AGACGGCAUGGUCCCAGCCUCCUCGCUGGCGCCGGCUGGGCAACAUUCCGAGGGGACCGUCCCCUCGGUAAUGGCGAAUGGGACCCA", "Label": "band 1"}
{"Biopolymer Sequence": "GGCCGGCAUGGUCCCAGCCUCCUCGCUGGCGCCGGCUGGGCAACAUUCCGAUGGGACCGUCCCCUCGGUAAUGGCGAAUGUGACCCA", "Label": "band 3"}
{"Biopolymer Sequence": "GGCCGGCAUGGUCCCAGCCUCCUCGCUGGCGCCGGCUGAGCAAGAUUCCGAGGGGACCGUCCCCUCGGUAAUGGCGAAUGGGACCCA", "Label": "band 2"}
{"Biopolymer Sequence": "GGCCGGCAUGGUCCCAGCCUCCACGCUGGCGCCGGCUGGGCAACAUUCCGAGGGGACCGUCCCCUCGGUAAUGGCGAAUGGGACCCA", "Label": "band 3"}

Kindly identify the class of GGCCGGCAUGGUCCCAGCCUCCUCGCUGGCGCCGGCUGGGCAACAUUCUGGGGGGACCGUCCCCUCGGUAAUGGCGAAUGGGACCCA . band 3

Kindly identify the class of GGCCGGCAUGGUCCCAGCCUCCUCGCUAGCGCCGGCUGGGCAACAUUCCGAGGGGACCGUCCCCUCGGUAAAGGCGAAUGGGACCCA . band 2

Kindly identify the class of GGCCGGCAUGGUCCCAGCCUCGUCGCUGGCGCCGGCUGGGCAACAUUCCCAGGGGACCGUCCCCUCGGUAAUGGCGAAUGGGACCCA . band 1

Kindly identify the class of GGCCGGCAUGGUCCCAGCCUCCUCGCUGGCGGCGGCUGGGCAAGAUUCCGAGGGGACCGUCCCCUCGGUAAUGGCGAAUGGGACCCA . band 1

Kindly identify the class of GGCCGGCAUGGUCCGAGCCUCCUCGCUGCCGCCGGCUGGGCAACAUUCCGAGGGGACCGUCCCCUCGGUAAUGGCGAAUGGGACCCA . band 1

Kindly identify the class of GGCCGGCAUCGUCCCAGCCUCCUCGCUGGCGCCGGCUGGGCAACAUUCCGAGGGGACCGUCCCCUCGGUAAUGGCGAAUGGGAGCCA . band 3

Kindly identify the class of AGCCGGCAUGGUCCCAGCCUCCUGGCUGGCGCCGGCUGGGCAACAUUCCGAGGGGACCGUCCCCUCGGUAAUGGCGAAUGGGACCCA . band 1

Kindly identify the class of GGCCGGCAUGGUCCCAGCCUCCUCGCUGGCGCCGGCUGGGCAACAUUCCGAGGGGACCAUCCCCUCGGUAAUGGCGAAUGGGACCCA . band 3

Kindly identify the class of GGCCGGCAUGGUCCCAGCCUCCUCGCUGGCGCCGGCUGGGCAACAUUCCGAGGGGACCGUUCCCUCGGUAAUGGCGGAUGGGACCCA . band 3
